MIC values, listed per item
system: Mycoplasma gallisepticum Strain 2012; test: in vitro antimicrobial activity (MIC) in Frey liquid medium; assay type: cell-based; settings: Mycoplasmoides gallisepticum, STRAIN2012; Mycoplasma gallisepticum Strain 2012, from chicken; Frey liquid medium, 37°C, 3-5 days; read-out: MIC

>  <COMPOUND>
C[C@H]1COc2c(N3CCN(C)CC3)c(F)cc3c(=O)c(C(=O)O)cn1c23 [Compound (1), hemihydrate]

>  <ASSAY_TARGET>
Mycoplasma gallisepticum Strain 2012

>  <MIC>
0.025 µg/mL

$$$$
>  <COMPOUND>
CCN1CCN(c2c(F)cc3c(=O)c(C(=O)O)cn4c3c2OCC4C)CC1 (racemic) [Compound (2)]

>  <ASSAY_TARGET>
Mycoplasma gallisepticum Strain 2012

>  <MIC>
0.025 µg/mL

$$$$
>  <COMPOUND>
CCCCN1CCN(c2c(F)cc3c(=O)c(C(=O)O)cn4c3c2OCC4C)CC1 (racemic) [Compound (5)]

>  <ASSAY_TARGET>
Mycoplasma gallisepticum Strain 2012

>  <MIC>
0.025 µg/mL

$$$$
>  <COMPOUND>
CCCN1CCN(c2c(F)cc3c(=O)c(C(=O)O)cn4c3c2OCC4C)CC1 (racemic) [Compound (3)]

>  <ASSAY_TARGET>
Mycoplasma gallisepticum Strain 2012

>  <MIC>
0.05 µg/mL

$$$$
>  <COMPOUND>
CC(C)N1CCN(c2c(F)cc3c(=O)c(C(=O)O)cn4c3c2OCC4C)CC1 (racemic) [(4)]

>  <ASSAY_TARGET>
Mycoplasma gallisepticum Strain 2012

>  <MIC>
0.05 µg/mL

$$$$

----------
MIC values, listed per item
tested on: Salmonella typhimurium 103; experiment: in vitro antimicrobial activity (MIC), agar dilution, Part 2; format: cell-based; settings: Salmonella enterica; Salmonella typhimurium 103, Chicken; read-out: MIC
REPORTED_PROPERTY: MIC

>  <MOLECULE>
C[C@H]1COc2c(N3CCN(C)CC3)c(F)cc3c(=O)c(C(=O)O)cn1c23 [Compound (1), hemihydrate]

>  <ENDPOINT_VALUE>
0.05 µg/mL

$$$$
>  <MOLECULE>
CCCN1CCN(c2c(F)cc3c(=O)c(C(=O)O)cn4c3c2OC[C@@H]4C)CC1 [Compound (7)]

>  <ENDPOINT_VALUE>
0.2 µg/mL

$$$$
>  <MOLECULE>
CCCCN1CCN(c2c(F)cc3c(=O)c(C(=O)O)cn4c3c2OCC4C)CC1 (racemic) [Compound (5)]

>  <ENDPOINT_VALUE>
1.56 µg/mL

$$$$
>  <MOLECULE>
CCN1CCN(c2c(F)cc3c(=O)c(C(=O)O)cn4c3c2OC[C@@H]4C)CC1 [(6)]

>  <ENDPOINT_VALUE>
0.1 µg/mL

$$$$
>  <MOLECULE>
CCN1CCN(c2c(F)cc3c(=O)c(C(=O)O)cn4c3c2OCC4C)CC1 (racemic) [Compound (2)]

>  <ENDPOINT_VALUE>
0.2 µg/mL

$$$$
>  <MOLECULE>
CCCN1CCN(c2c(F)cc3c(=O)c(C(=O)O)cn4c3c2OCC4C)CC1 (racemic) [Compound (3)]

>  <ENDPOINT_VALUE>
0.78 µg/mL

$$$$
>  <MOLECULE>
CC(C)N1CCN(c2c(F)cc3c(=O)c(C(=O)O)cn4c3c2OCC4C)CC1 (racemic) [(4)]

>  <ENDPOINT_VALUE>
0.78 µg/mL

$$$$

----------
assay: Acute toxicity test, intravenous injection; assay type: in vivo; conditions: mouse, in vivo, iv
LD50 values, listed per item

>  <COMPOUND>
CCCN1CCN(c2c(F)cc3c(=O)c(C(=O)O)cn4c3c2OCC4C)CC1 (racemic)

>  <LD50>
> 200 mg/kg

$$$$
>  <COMPOUND>
CCN1CCN(c2c(F)cc3c(=O)c(C(=O)O)cn4c3c2OCC4C)CC1 (racemic)

>  <LD50>
> 200 mg/kg

$$$$

----------
Chickens developing disease in air sac (naked eye observation) values, listed per item
tested on: Mycoplasma gallisepticum; test: Effect of oral administration on chicken inoculated with Mycoplasma gallisepticum; type: in vivo; conditions: 50 ppm in feed for 5 days; 5 tested chickens
REPORTED_PROPERTY: Chickens developing disease in air sac (naked eye observation)

>  <COMPOUND>
CCN1CCN(c2c(F)cc3c(=O)c(C(=O)O)cn4c3c2OCC4C)CC1 (racemic) [Compound (2)]

>  <ENDPOINT_VALUE>
0

$$$$
>  <COMPOUND>
CC1COc2c(N3CCN(C)CC3)c(F)cc3c(=O)c(C(=O)O)cn1c23 (racemic) [Ofloxacin, reference compound]

>  <ENDPOINT_VALUE>
1

$$$$
>  <COMPOUND>
CCCN1CCN(c2c(F)cc3c(=O)c(C(=O)O)cn4c3c2OCC4C)CC1 (racemic) [Compound (3)]

>  <ENDPOINT_VALUE>
0

$$$$
>  <COMPOUND>
C[C@H]1COc2c(N3CCN(C)CC3)c(F)cc3c(=O)c(C(=O)O)cn1c23 [Compound (1), hemihydrate]

>  <ENDPOINT_VALUE>
0

$$$$

----------
System: Bordetella bronchiaseptica OKM-1
Experiment: in vitro antimicrobial activity (MIC), agar dilution, Part 2
Type: cell-based
Settings: Bordetella, OKM1, Bordetella bronchiaseptica OKM-1, Pig; read-out: MIC
Procedure: Test microorganisms listed in Table 2 were cultured overnight in heart infusion nutrient broth (produced by Eiken Chemical Co., Ltd.). Culture broth containing about 10⁸/ml cells was diluted to a volume of 100 times. […] MIC of Compounds (1)-(8) against various pathogenic bacteria derived from animals was determined in the same manner as in Example 1.

>  <COMPOUND>
CCCN1CCN(c2c(F)cc3c(=O)c(C(=O)O)cn4c3c2OCC4C)CC1 (racemic)

>  <MIC>
0.78 µg/mL

$$$$
>  <COMPOUND>
CCCN1CCN(c2c(F)cc3c(=O)c(C(=O)O)cn4c3c2OC[C@@H]4C)CC1

>  <MIC>
0.39 µg/mL

$$$$
>  <COMPOUND>
CCCCN1CCN(c2c(F)cc3c(=O)c(C(=O)O)cn4c3c2OCC4C)CC1 (racemic)

>  <MIC>
0.78 µg/mL

$$$$
>  <COMPOUND>
CCN1CCN(c2c(F)cc3c(=O)c(C(=O)O)cn4c3c2OC[C@@H]4C)CC1

>  <MIC>
0.2 µg/mL

$$$$
>  <COMPOUND>
CCN1CCN(c2c(F)cc3c(=O)c(C(=O)O)cn4c3c2OCC4C)CC1 (racemic)

>  <MIC>
0.2 µg/mL

$$$$
>  <COMPOUND>
CC(C)N1CCN(c2c(F)cc3c(=O)c(C(=O)O)cn4c3c2OCC4C)CC1 (racemic)

>  <MIC>
0.78 µg/mL

$$$$
>  <COMPOUND>
C[C@H]1COc2c(N3CCN(C)CC3)c(F)cc3c(=O)c(C(=O)O)cn1c23 [Compound (1), hemihydrate]

>  <MIC>
0.2 µg/mL

$$$$

----------
MIC values, listed per item
Tested on: Pasteurella multocida DB-12-1
Experiment: in vitro antimicrobial activity (MIC), agar dilution, Part 2
Format: cell-based
Details: DB121; Pasteurella multocida DB-12-1, Pig; read-out: MIC
Method: Test microorganisms listed in Table 2 were cultured overnight in heart infusion nutrient broth (produced by Eiken Chemical Co., Ltd.). Culture broth containing about 10⁸/ml cells was diluted to a volume of 100 times. […] MIC of Compounds (1)-(8) against various pathogenic bacteria derived from animals was determined in the same manner as in Example 1.

>  <MOLECULE>
CCCN1CCN(c2c(F)cc3c(=O)c(C(=O)O)cn4c3c2OCC4C)CC1 (racemic)

>  <MIC>
0.1 µg/mL

$$$$
>  <MOLECULE>
CCCCN1CCN(c2c(F)cc3c(=O)c(C(=O)O)cn4c3c2OCC4C)CC1 (racemic)

>  <MIC>
0.1 µg/mL

$$$$
>  <MOLECULE>
CC(C)N1CCN(c2c(F)cc3c(=O)c(C(=O)O)cn4c3c2OCC4C)CC1 (racemic)

>  <MIC>
0.2 µg/mL

$$$$
>  <MOLECULE>
CCN1CCN(c2c(F)cc3c(=O)c(C(=O)O)cn4c3c2OCC4C)CC1 (racemic)

>  <MIC>
0.05 µg/mL

$$$$

----------
system: Mycoplasma gallisepticum Strain DP-1047; assay: in vitro antimicrobial activity (MIC) in Frey liquid medium; format: cell-based; details: Mycoplasmoides gallisepticum; Mycoplasma gallisepticum Strain DP-1047, from chicken; Frey liquid medium, 37°C, 3-5 days; read-out: MIC

>  <COMPOUND>
CCN1CCN(c2c(F)cc3c(=O)c(C(=O)O)cn4c3c2OCC4C)CC1 (racemic) [Compound (2)]

>  <ASSAY_TARGET>
Mycoplasma gallisepticum Strain DP-1047

>  <UNIT_ANNOTATION>
µg/mL

>  <MIC>
0.1

$$$$
>  <COMPOUND>
CCCN1CCN(c2c(F)cc3c(=O)c(C(=O)O)cn4c3c2OCC4C)CC1 (racemic) [Compound (3)]

>  <ASSAY_TARGET>
Mycoplasma gallisepticum Strain DP-1047

>  <UNIT_ANNOTATION>
µg/mL

>  <MIC>
0.2

$$$$
>  <COMPOUND>
C[C@H]1COc2c(N3CCN(C)CC3)c(F)cc3c(=O)c(C(=O)O)cn1c23 [Compound (1), hemihydrate]

>  <ASSAY_TARGET>
Mycoplasma gallisepticum Strain DP-1047

>  <UNIT_ANNOTATION>
µg/mL

>  <MIC>
0.025

$$$$
>  <COMPOUND>
CCCCN1CCN(c2c(F)cc3c(=O)c(C(=O)O)cn4c3c2OCC4C)CC1 (racemic) [Compound (5)]

>  <ASSAY_TARGET>
Mycoplasma gallisepticum Strain DP-1047

>  <UNIT_ANNOTATION>
µg/mL

>  <MIC>
0.1

$$$$
>  <COMPOUND>
CC(C)N1CCN(c2c(F)cc3c(=O)c(C(=O)O)cn4c3c2OCC4C)CC1 (racemic) [(4)]

>  <ASSAY_TARGET>
Mycoplasma gallisepticum Strain DP-1047

>  <UNIT_ANNOTATION>
µg/mL

>  <MIC>
0.2

$$$$

From: patent EP0354453A2
